The following compounds are listed with their measured GTPγS δ-opioid receptor Rel Efficacy values.
- TARGET_OR_TEST_SYSTEM: delta opioid receptor (Mus musculus)
- Construct: NG108-15 cell membranes were purchased from Applied Cell Sciences (Rockville, Md.); host or cells: NG108-15 cell membranes
- Sequence (P32300 whole entry): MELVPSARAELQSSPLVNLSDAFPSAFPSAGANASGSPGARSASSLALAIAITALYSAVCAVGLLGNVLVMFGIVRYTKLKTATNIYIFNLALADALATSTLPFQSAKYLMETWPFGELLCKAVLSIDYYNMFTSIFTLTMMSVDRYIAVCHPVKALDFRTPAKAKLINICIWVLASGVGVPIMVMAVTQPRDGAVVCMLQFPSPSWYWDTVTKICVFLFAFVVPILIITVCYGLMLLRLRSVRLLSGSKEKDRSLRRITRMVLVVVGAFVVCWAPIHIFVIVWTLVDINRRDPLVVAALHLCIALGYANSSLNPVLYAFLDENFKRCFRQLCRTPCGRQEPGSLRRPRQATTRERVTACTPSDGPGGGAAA
- METHOD_NOTES: [35S]GTPγS binding assay in NG108-15 cell membranes (delta opioid functional assay), 200 nM screen
- Type: biochemical
- SETTINGS: relative efficacy from dose response; NG108-15 cell membranes

Sample records with GTPγS δ-opioid receptor Rel Efficacy:
[[record]]
smiles_code = "COc1ccc(Oc2nc(-c3ccccc3)ncc2N2CCNCC2)cc1"
reported_endpoint = "GTPγS δ-opioid receptor Rel Efficacy"
result = 1.045

[[record]]
smiles_code = "COc1cncc(-c2ncc(NC[C@@H]3CCCN3)c(Oc3cccc(O)c3)n2)c1"
reported_endpoint = "GTPγS δ-opioid receptor Rel Efficacy"
result = 0.940


*Q* Provide the documented GTPγS δ-opioid receptor Rel Efficacy with delta opioid receptor (Mus musculus) as the system for COc1ccc(Oc2nc(-c3cncc(OC)c3)ncc2NC[C@H]2C[C@@H](O)CN2)cc1
*A* 0.863

###

- TARGET_OR_TEST_SYSTEM: mu opioid receptor (Rattus norvegicus)
- Construct: the forebrains were homogenized in Tris buffer in a Teflon®-glass homogenizer; from tissue; host or cells: forebrain of male Wistar rats, particulate (membrane) preparation
- Sequence (P33535 whole entry): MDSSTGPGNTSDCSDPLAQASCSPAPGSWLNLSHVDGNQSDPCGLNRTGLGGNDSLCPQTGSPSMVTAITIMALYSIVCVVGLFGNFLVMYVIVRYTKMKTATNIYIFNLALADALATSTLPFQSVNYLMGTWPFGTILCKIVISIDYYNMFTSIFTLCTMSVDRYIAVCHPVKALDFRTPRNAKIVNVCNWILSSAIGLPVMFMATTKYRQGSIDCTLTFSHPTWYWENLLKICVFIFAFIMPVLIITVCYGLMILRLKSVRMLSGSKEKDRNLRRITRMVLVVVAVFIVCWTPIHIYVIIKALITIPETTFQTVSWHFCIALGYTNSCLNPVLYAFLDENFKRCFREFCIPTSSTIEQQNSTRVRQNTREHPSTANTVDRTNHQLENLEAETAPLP
- METHOD_NOTES: Rat brain mu opioid receptor binding assay
- SETTINGS: rat forebrain, [3H]DAMGO ligand; read-out: μ-binding Ki
REPORTED_ENDPOINT: Ki (µM)
Entry rule: numbers only, all in µM.

Sample records with Ki:
[[record]]
smiles_code = "COc1ccc(Oc2nc(-c3ccn[nH]3)ncc2NC[C@@H]2CCCN2)cc1"
reported_endpoint = "Ki"
measured_number = 3.99

[[record]]
smiles_code = "COc1ccc(Oc2nc(-c3ccc(F)c(F)c3)ncc2NC[C@@H]2CCCN2)cc1"
reported_endpoint = "Ki"
measured_number = 1.94

[[record]]
smiles_code = "COc1ccc(Oc2nc(-c3cccc(N)c3)ncc2NC[C@@H]2CCCN2)cc1"
reported_endpoint = "Ki"
measured_number = 0.812

[[record]]
smiles_code = "CC(=O)Nc1ccc(Oc2nc(-c3cccnc3)ncc2NC[C@@H]2CCCN2)cc1"
reported_endpoint = "Ki"
measured_number = 5.57

[[record]]
smiles_code = "COc1ccc(Oc2nc(-c3cncc(F)c3)ncc2NC[C@@H]2CCCN2)cc1"
reported_endpoint = "Ki"
measured_number = 0.217


*Q* Fill in the blank: the reported Ki of Fc1ccc(Oc2nc(-c3cccnc3)ncc2NC[C@@H]2CCCN2)cc1 is ____.
*A* 4.77

*Q* Next compound: COc1ccc(-c2ncc(NC[C@@H]3CCCN3)c(Oc3ccc(N)cc3)n2)cn1
*A* 2.69

*Q* Next compound: COc1ccc(-c2ncc(NC[C@@H]3CCCN3)c(Oc3ccc(O)cc3)n2)cn1
*A* 1.61

*Q* Next compound: COc1ccc(Oc2nc(-c3ccsc3)ncc2NC[C@@H]2CCCN2)cc1
*A* 2.97

###

- TARGET_OR_TEST_SYSTEM: delta opioid receptor (Rattus norvegicus, UniProt P33533)
- Construct: the forebrains were homogenized in Tris buffer in a Teflon®-glass homogenizer; from tissue; host or cells: forebrain of male Wistar rats, particulate (membrane) preparation
- Sequence (P33533 whole entry): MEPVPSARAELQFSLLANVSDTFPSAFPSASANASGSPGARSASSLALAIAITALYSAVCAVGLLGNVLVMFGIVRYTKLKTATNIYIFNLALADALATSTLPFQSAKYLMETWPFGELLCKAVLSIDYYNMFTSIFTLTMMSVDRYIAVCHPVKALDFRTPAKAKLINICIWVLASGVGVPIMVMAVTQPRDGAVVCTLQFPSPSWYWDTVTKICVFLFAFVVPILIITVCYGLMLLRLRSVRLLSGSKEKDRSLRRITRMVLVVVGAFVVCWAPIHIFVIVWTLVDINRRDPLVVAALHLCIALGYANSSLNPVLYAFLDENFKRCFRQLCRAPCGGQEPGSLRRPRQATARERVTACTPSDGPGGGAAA
- METHOD_NOTES: Rat brain delta opioid receptor binding assay
- SETTINGS: δ-binding (DPDPE ligand) Ki, rat forebrain, [3H]DPDPE ligand
REPORTED_ENDPOINT: pKi
API: returns pKi as number; meaning -log10 of concentration in mol/L.

*Q* Fill in the blank: the reported pKi of COc1ccc(Oc2nc(-c3ccccc3)ncc2NC[C@@H]2CCCN2)cc1 [Cpd 2] is ____.
*A* 7.70

Reference source: patent US8513271B2
